Target: TRPV1 receptor (Rattus norvegicus)
Test: TRPV1 modulation in DRG neurones: CGRP release in absence and presence of capsaicin (Assay 2)
Type: cell-based
Parameters: The culture used for this experiment contained sensory neurones, Schwann cells and fibroblasts; endogenous in cells; host or cells: primary rat DRG sensory neurone culture (with Schwann cells and fibroblasts)
Conditions: 3 μM with capsaicin 1 μM; −ve: inhibition, +ve: potentiation of capsaicin response
readout: Effect of test compounds on capsaicin (1 μM)-induced CGRP release (%)

                                   molecule  observed
0  COc1cc(CCC(=O)CC(=O)c2ccc(Cl)c(Cl)c2)ccc1O [Compound 23]        −2
1  COc1cc(CCC(=O)CC(=O)c2ccc(Cl)cc2Cl)ccc1O [Compound 24]       −13
2  CCC(=O)CC(=O)CCc1ccc(O)c(OC)c1 [3-gingerdione, reference compound]       −37
3  COc1cc(CCC(=O)CC(=O)C(C)C)ccc1O [Compound 1]       −36

---

Target: UniProt O35433
Experiment: TRPV1 modulation in DRG neurones: CGRP release in absence and presence of capsaicin (Assay 2)
Type: cell-based
Parameters: The culture used for this experiment contained sensory neurones, Schwann cells and fibroblasts; endogenous in cells; host or cells: primary rat DRG sensory neurone culture (with Schwann cells and fibroblasts)
Settings: 20 min; 30 μM with capsaicin 1 μM; −ve: inhibition, +ve: potentiation of capsaicin response; read-out: Effect of test compounds on capsaicin (1 μM)-induced CGRP release (%)
Listed here are compounds together with their documented inhibition at 30 µM.
readout: inhibition at 30 µM (%)

>>> df
                                   compound  measurement_units  observed
0  COc1cc(CCC(=O)C(C)C(=O)c2ccc(O)c(OC)c2)ccc1O (centres unmarked)                  %       -49
1    COc1cc(CCC(=O)CC(=O)c2ccc(Cl)cc2)ccc1O                  %       -56
2  COC(=O)c1ccc(C(=O)CC(=O)CCc2ccc(O)c(OC)c2)cc1                  %        21
3  COc1cc(CCC(=O)CC(=O)C(c2ccccc2)c2ccccc2)ccc1O                  %      -150
4  COc1cc(CCC(=O)C(C)C(=O)c2ccccc2)ccc1O (centres unmarked)                  %        12

---

Biological target: TRPV1 receptor (Rattus norvegicus, UniProt O35433)
Sequence (O35433 whole entry): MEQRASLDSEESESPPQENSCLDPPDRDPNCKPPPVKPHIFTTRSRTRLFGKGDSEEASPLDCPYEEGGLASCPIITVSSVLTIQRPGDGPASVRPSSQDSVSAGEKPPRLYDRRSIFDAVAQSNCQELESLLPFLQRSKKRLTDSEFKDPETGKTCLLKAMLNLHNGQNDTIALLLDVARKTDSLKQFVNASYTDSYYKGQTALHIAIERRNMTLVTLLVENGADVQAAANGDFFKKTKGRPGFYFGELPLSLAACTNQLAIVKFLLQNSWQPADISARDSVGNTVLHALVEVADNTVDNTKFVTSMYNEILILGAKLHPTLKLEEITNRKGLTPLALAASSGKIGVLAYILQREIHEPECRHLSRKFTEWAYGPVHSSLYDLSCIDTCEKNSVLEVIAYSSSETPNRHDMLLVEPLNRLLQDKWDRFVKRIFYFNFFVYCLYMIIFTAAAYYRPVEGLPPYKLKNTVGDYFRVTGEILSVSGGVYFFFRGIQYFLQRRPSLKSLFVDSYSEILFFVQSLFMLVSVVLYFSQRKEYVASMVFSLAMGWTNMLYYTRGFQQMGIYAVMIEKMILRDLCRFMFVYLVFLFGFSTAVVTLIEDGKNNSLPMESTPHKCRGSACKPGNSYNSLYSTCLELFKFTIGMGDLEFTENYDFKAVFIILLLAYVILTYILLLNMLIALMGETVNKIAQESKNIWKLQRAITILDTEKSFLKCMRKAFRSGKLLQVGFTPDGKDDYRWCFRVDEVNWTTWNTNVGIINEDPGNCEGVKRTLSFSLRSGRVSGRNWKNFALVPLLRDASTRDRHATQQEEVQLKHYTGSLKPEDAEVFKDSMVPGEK
Test: TRPV1 modulation in DRG neurones: CGRP release in absence and presence of capsaicin (Assay 2)
Assay type: cell-based
Design: The culture used for this experiment contained sensory neurones, Schwann cells and fibroblasts; endogenous in cells; host or cells: primary rat DRG sensory neurone culture (with Schwann cells and fibroblasts)
Settings: 20 min; test compound alone 30 μM, rat DRG sensory neurones, 20 min; read-out: CGRP release (% of capsaicin (1 μM) response)
readout: Emax at 30 µM (%)

>>> df
                                   molecule  measurement_units  observed
0  COc1cc(CCC(=O)C(C)C(=O)c2ccccc2)ccc1O (centres unmarked)                  %       111
1     COc1cc(CCC(=O)CC(=O)c2ccc(F)cc2)ccc1O                  %        96
2  COc1cc(CCC(=O)C(C)(C)C(=O)c2ccccc2)ccc1O                  %        21
3   COc1cc(CCC(=O)CC(=O)c2ccc(Cl)cc2C)ccc1O                  %       107
4       COc1cc(CCC(=O)CC(=O)c2ccccc2C)ccc1O                  %        74

---

Biological target: TRPV1 receptor (Rattus norvegicus, UniProt O35433)
Assay: TRPV1 modulation in DRG neurones: CGRP release in absence and presence of capsaicin (Assay 2)
Format: cell-based
Design: The culture used for this experiment contained sensory neurones, Schwann cells and fibroblasts; endogenous in cells; host or cells: primary rat DRG sensory neurone culture (with Schwann cells and fibroblasts)
Conditions: test compound alone 3 μM, rat DRG sensory neurones, 20 min
readout: CGRP release (% of capsaicin (1 μM) response) (%)

In [3]: df
Out[3]:
                                   compound  observed
0           COc1cc(CCC(=O)CC(=O)C(C)C)ccc1O        26
1  COc1cc(CCC(=O)CC(=O)c2ccc(Cl)c(Cl)c2)ccc1O        84
2  CCC(=O)CC(=O)CCc1ccc(O)c(OC)c1 [3-gingerdione, reference compound]        17
3  COc1cc(CCC(=O)CC(=O)c2ccc(Cl)cc2Cl)ccc1O        92

---

Biological target: TRPV1 receptor (Rattus norvegicus)
Experiment: TRPV1 receptor modulation in the rat vas deferens, EFS-induced contraction (Assay 1)
Conditions: electrical field stimulation, read-out: Inhibition of EFS response relative to capsaicin
Protocol: Wistar derived male rats (275±25 g) were suppressed by CO2 overexposure. The vas deferens was removed, placed in Krebs solution, pH 7.4 (composition in g/l: NaCl 6.89, KCl 0.35, CaCl2 0.277, KH2PO4 0.163, MgSO4.7H2O 0.296, NaHCO3 2.1 glucose 1.8) and excess fat and connective tissue removed. […] The tissue was contracted by electrical field stimulation (EFS; 60% of maximum stimulation, 0.015 Hz, 0.5 ms in duration) and contractile responses were measured.
I'd appreciate it if you could label each record using Emax and these ranges: lower level (below -10%), middle level (-10% to below 40%), upper level (40% or more)

>>> print(df.to_string())
                                    molecule  assigned_class
 0      COc1cc(/C=C/C(=O)CC(=O)C2CCCC2)ccc1O     lower level
 1       COc1cc(CCC(=O)CC(=O)CC(C)(C)C)ccc1O     upper level
 2        COc1cc(CCC(=O)CC(=O)C(C)(C)C)ccc1O     upper level
 3        COc1cc(CCC(=O)CC(=O)c2ccccc2)ccc1O    middle level
 4    COc1cc(/C=C/C(=O)CC(=O)CC(C)(C)C)ccc1O    middle level
 5     COc1cc(/C=C/C(=O)CC(=O)c2ccccc2)ccc1O    middle level
 6        COc1cc(/C=C/C(=O)CC(=O)C(C)C)ccc1O     lower level
 7     COc1cc(CCC(=O)CC(=O)C2(C)CCCCC2)ccc1O    middle level
 8         COc1cc(CCC(=O)CC(=O)C2CCCC2)ccc1O    middle level
 9        COc1cc(CCC(=O)CC(=O)C2(C)CC2)ccc1O    middle level
10  COc1cc(CCC(=O)C(C)C(=O)c2ccccc2)ccc1O (stereo not drawn)     upper level
11     COc1cc(/C=C/C(=O)CC(=O)C(C)(C)C)ccc1O     lower level
12  COc1cc(/C=C/C(=O)C(C)C(=O)c2ccccc2)ccc1O (stereo not drawn)     lower level
13     COc1cc(/C=C/C(=O)CC(=O)C2(C)CC2)ccc1O     lower level
14  COc1cc(/C=C/C(=O)CC(=O)C2(C)CCCCC2)ccc1O    middle level

---

Molecular target: 5-lipoxygenase (Homo sapiens, UniProt P09917)
Construct: endogenous in cells; host or cells: human peripheral blood mononuclear leukocytes (PBMLs)
Sequence (P09917 whole entry): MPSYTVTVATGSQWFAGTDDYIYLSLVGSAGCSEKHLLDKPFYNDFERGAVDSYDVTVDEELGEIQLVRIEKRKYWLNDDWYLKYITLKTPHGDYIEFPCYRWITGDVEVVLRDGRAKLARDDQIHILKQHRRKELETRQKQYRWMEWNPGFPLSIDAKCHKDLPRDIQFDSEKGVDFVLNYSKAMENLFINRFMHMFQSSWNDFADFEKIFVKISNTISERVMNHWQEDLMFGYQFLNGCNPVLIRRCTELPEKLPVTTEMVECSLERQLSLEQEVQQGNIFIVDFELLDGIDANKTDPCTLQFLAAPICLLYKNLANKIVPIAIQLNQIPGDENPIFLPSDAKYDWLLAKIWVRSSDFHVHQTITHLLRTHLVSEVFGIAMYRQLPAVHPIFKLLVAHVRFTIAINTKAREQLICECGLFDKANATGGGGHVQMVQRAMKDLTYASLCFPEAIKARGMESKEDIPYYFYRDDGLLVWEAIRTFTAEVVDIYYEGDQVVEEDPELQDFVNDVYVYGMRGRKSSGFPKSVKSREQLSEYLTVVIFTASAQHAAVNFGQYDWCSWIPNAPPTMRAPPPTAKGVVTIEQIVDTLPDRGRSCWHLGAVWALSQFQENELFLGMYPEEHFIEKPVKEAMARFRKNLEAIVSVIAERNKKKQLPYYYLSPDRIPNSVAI
Test: 5-lipoxygenase activity (LTB4) in human peripheral blood mononuclear leukocytes (Assay 6)
Assay type: cell-based
Conditions: 30 μM, human PBMLs, A23187 30 μM
Listed here are compounds together with their documented Inhibition of 5-LO (%).
readout: Inhibition of 5-LO (%)

                                   compound                          target_or_system                 readout  measurement_units  observed
0  COc1cc(CCC(=O)CC(=O)c2ccc(Cl)cc2Cl)ccc1O  5-lipoxygenase (Homo sapiens, UniProt P09917)  Inhibition of 5-LO (%)                  %        97
1  COc1cc(CCC(=O)CC(=O)c2ccc(Cl)c(Cl)c2)ccc1O  5-lipoxygenase (Homo sapiens, UniProt P09917)  Inhibition of 5-LO (%)                  %        98
2           COc1cc(CCC(=O)CC(=O)C(C)C)ccc1O  5-lipoxygenase (Homo sapiens, UniProt P09917)  Inhibition of 5-LO (%)                  %        63
3  CCC(=O)CC(=O)CCc1ccc(O)c(OC)c1 [3-gingerdione, reference compound]  5-lipoxygenase (Homo sapiens, UniProt P09917)  Inhibition of 5-LO (%)                  %        73

Origin of the recorded values: patent US7589123B2
